Provide the reported IC50 of each item.
- experimentalSystem: soybean lipoxygenase (LOX) (Glycine max, UniProt P08170)
- Construct: gene LOX1.1
- Sequence (P08170 whole entry): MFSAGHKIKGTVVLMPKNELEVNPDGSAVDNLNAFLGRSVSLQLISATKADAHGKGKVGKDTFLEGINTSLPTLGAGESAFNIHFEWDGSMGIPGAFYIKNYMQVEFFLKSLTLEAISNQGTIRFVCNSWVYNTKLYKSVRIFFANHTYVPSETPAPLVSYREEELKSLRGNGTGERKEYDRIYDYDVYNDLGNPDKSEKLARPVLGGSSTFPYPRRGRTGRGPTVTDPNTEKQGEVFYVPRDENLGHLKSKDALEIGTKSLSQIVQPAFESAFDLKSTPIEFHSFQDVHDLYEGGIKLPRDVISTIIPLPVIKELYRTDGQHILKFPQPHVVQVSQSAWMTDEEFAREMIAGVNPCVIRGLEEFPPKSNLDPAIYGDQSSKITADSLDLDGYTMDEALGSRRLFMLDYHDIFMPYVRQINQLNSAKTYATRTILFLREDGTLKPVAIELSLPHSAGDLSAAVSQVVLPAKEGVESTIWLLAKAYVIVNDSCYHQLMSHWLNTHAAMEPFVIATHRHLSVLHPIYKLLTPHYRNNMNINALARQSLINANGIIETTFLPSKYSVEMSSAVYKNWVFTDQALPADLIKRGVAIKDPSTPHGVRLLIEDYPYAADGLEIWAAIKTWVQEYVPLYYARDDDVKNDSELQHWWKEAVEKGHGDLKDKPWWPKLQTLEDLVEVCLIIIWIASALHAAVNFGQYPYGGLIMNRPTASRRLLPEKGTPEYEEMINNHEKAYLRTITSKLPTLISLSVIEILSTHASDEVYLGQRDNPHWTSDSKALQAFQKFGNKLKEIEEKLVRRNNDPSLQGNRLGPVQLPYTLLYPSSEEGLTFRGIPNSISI
- assayOverview: soybean lipoxygenase, linoleate oxidation at […] nm
- Type: biochemical
- experimentalSetup: read-out: LOX inhibition (IC50 [μM]/%)
Provide only the numeric value, understood in µM.

For [O-]/[N+](=C\c1ccccc1/C=[N+](\[O-])Cc1ccccc1)Cc1ccccc1 the molecule record lists IC50 as 85

Kindly note the recorded IC50 for C/[N+]([O-])=C/c1ccccc1/C=[N+](/C)[O-] , which is 60

# molecule CC(C)(C)/[N+]([O-])=C/c1ccccc1/C=[N+](\[O-])C(C)(C)C ; its IC50 = 57.5
